# System: L1210 murine leukemia cell line
# test protocol: Disk diffusion soft agar colony formation assay
# Format: cell-based
# condition set: 20 ug per disk, 200 zone units = 6 MM
reported metric: Measurement in zone units

compound	measured on	recorded value
[C-]#[N+]C1C(C)(C=C)CCC2C(C)(C)c3cccc4[nH]c(C(C)(C)C=C)c(c34)C12O (stereo not shown)	L1210 murine leukemia cell line	100-200 zone units
[C-]#[N+]C12C3OC3C(C)(C)c3[nH]c4cccc5c4c3C1(O)C(CCC2(C)C=C)C5(C)C (stereo not shown)	L1210 murine leukemia cell line	100-250 zone units
[C-]#[N+]C1C2c3c(C(C)(C)C=C)[nH]c4cccc(c34)C(C)(C)C2CC(Cl)C1(C)C=C (stereo not shown)	L1210 murine leukemia cell line	100-200 zone units
[C-]#[N+]C12C3OC3C(C)(C)c3[nH]c4cccc5c4c3C1(O)C(CC(Cl)C2(C)C=C)C5(C)C (stereo not shown)	L1210 murine leukemia cell line	300-350 zone units

* * *

# Tested on: LML "Low Malignancy Line" fibroblast
# test protocol: Disk diffusion soft agar colony formation assay
# Type: cell-based
# condition set: 80 ug per disk, 200 zone units = 6 MM
reported metric: Measurement in zone units

compound	recorded value
[C-]#[N+]C12C3OC3C(C)(C)c3[nH]c4cccc5c4c3C1(O)C(CCC2(C)C=C)C5(C)C (stereo not shown)	100-200 zone units
[C-]#[N+]C1C2c3c(C(C)(C)C=C)[nH]c4cccc(c34)C(C)(C)C2CC(Cl)C1(C)C=C (stereo not shown)	80-250 zone units
[C-]#[N+]C12C3OC3C(C)(C)c3[nH]c4cccc5c4c3C1(O)C(CC(Cl)C2(C)C=C)C5(C)C (stereo not shown)	0-120 zone units
[C-]#[N+]C1C(C)(C=C)CCC2C(C)(C)c3cccc4[nH]c(C(C)(C)C=C)c(c34)C12O (stereo not shown)	100-180 zone units

* * *

# Tested on: Candida albicans
# test protocol: In vitro antifungal activity, RPMI and 10% fetal calf serum broth
# Type: cell-based
# condition set: Table 3, RPMI & 10% Fetal Calf Serum Broth

compound	measured on	MIC [µg/mL]
[C-]#[N+]C1C2c3c(C(C)(C)C=C)[nH]c4cccc(c34)C(C)(C)C2CC(Cl)C1(C)C=C (centres unmarked)	Candida albicans	1.25
C[C@@H]1[C@H](O)[C@@H](C)/C=C/C=C/C=C/C=C/C=C/C=C/C=C/[C@H](O[C@@H]2O[C@H](C)[C@@H](O)[C@H](N)[C@@H]2O)C[C@@H]2O[C@](O)(C[C@@H](O)C[C@@H](O)[C@H](O)CC[C@@H](O)C[C@@H](O)CC(=O)O[C@H]1C)C[C@H](O)[C@H]2C(=O)O [Amphotericin B, reference compound]	Candida albicans	0.156
[C-]#[N+]C1C(C)(C=C)C(Cl)CC2C(C)(C)c3cccc4[nH]c(C(C)(C)C=C)c(c34)C21O (centres unmarked)	Candida albicans	1.25
[C-]#[N+]C12C3OC3C(C)(C)c3[nH]c4cccc5c4c3C1(O)C(CC(Cl)C2(C)C=C)C5(C)C (centres unmarked)	Candida albicans	1.25
[C-]#[N+]C12C(O)C(O)C(C)(C)c3[nH]c4cccc5c4c3C1(O)C(CC(Cl)C2(C)C=C)C5(C)C (centres unmarked)	Candida albicans	1.25

* * *

# Test system: Candida albicans
# test protocol: In vitro antifungal activity, Sabouraud's and Dextrose broth
# Type: cell-based
# condition set: Table 4
# MIC listing for each entry below

molecule	MIC, µg/mL
C[C@@H]1[C@H](O)[C@@H](C)/C=C/C=C/C=C/C=C/C=C/C=C/C=C/[C@H](O[C@@H]2O[C@H](C)[C@@H](O)[C@H](N)[C@@H]2O)C[C@@H]2O[C@](O)(C[C@@H](O)C[C@@H](O)[C@H](O)CC[C@@H](O)C[C@@H](O)CC(=O)O[C@H]1C)C[C@H](O)[C@H]2C(=O)O [Amphotericin B, reference compound]	0.312
[C-]#[N+]C1C(C)(C=C)C(Cl)CC2C(C)(C)c3cccc4[nH]c(C(C)(C)C=C)c(c34)C21O (centres unmarked)	2.5
[C-]#[N+]C12C3OC3C(C)(C)c3[nH]c4cccc5c4c3C1(O)C(CC(Cl)C2(C)C=C)C5(C)C (centres unmarked)	1.25
[C-]#[N+]C12C(O)C(O)C(C)(C)c3[nH]c4cccc5c4c3C1(O)C(CC(Cl)C2(C)C=C)C5(C)C (centres unmarked)	1.25
[C-]#[N+]C1C2c3c(C(C)(C)C=C)[nH]c4cccc(c34)C(C)(C)C2CC(Cl)C1(C)C=C (centres unmarked)	1.25

* * *

# Test system: L1210 murine leukemia cell line
# test protocol: Disk diffusion soft agar colony formation assay
# Type: cell-based
# condition set: 80 ug per disk, 200 zone units = 6 MM
# Measurement in zone units listing for each entry below

compound	Measurement in zone units
[C-]#[N+]C12C3OC3C(C)(C)c3[nH]c4cccc5c4c3C1(O)C(CC(Cl)C2(C)C=C)C5(C)C (stereo not shown) [A89271 F]	350-460 zone units
[C-]#[N+]C12C3OC3C(C)(C)c3[nH]c4cccc5c4c3C1(O)C(CCC2(C)C=C)C5(C)C (stereo not shown) [A89271 I]	200-220 zone units
[C-]#[N+]C1C2c3c(C(C)(C)C=C)[nH]c4cccc(c34)C(C)(C)C2CC(Cl)C1(C)C=C (stereo not shown) [A89271 B]	200-250 zone units
[C-]#[N+]C1C(C)(C=C)CCC2C(C)(C)c3cccc4[nH]c(C(C)(C)C=C)c(c34)C12O (stereo not shown) [A89271 E]	250-300 zone units

* * *

# Tested on: LML "Low Malignancy Line" fibroblast
# test protocol: Disk diffusion soft agar colony formation assay
# Format: cell-based
# condition set: 20 ug per disk, 200 zone units = 6 MM
# Measurement in zone units listing for each entry below
reported metric: Measurement in zone units

compound	measured on	recorded value
[C-]#[N+]C12C3OC3C(C)(C)c3[nH]c4cccc5c4c3C1(O)C(CC(Cl)C2(C)C=C)C5(C)C (stereo not shown) [A89271 F]	LML "Low Malignancy Line" fibroblast	0-80 zone units
[C-]#[N+]C1C2c3c(C(C)(C)C=C)[nH]c4cccc(c34)C(C)(C)C2CC(Cl)C1(C)C=C (stereo not shown) [A89271 B]	LML "Low Malignancy Line" fibroblast	0-100 zone units
[C-]#[N+]C1C(C)(C=C)CCC2C(C)(C)c3cccc4[nH]c(C(C)(C)C=C)c(c34)C12O (stereo not shown) [A89271 E]	LML "Low Malignancy Line" fibroblast	80 zone units
[C-]#[N+]C12C3OC3C(C)(C)c3[nH]c4cccc5c4c3C1(O)C(CCC2(C)C=C)C5(C)C (stereo not shown) [A89271 I]	LML "Low Malignancy Line" fibroblast	0-180 zone units
